- Test system: A498 renal
- Experiment summary: NCI tumour cell line growth inhibition, 48 h
Measured parameter: TGI (µM)
Numbers only, in µM.

Illustrative cases are given below, each with its answer.
# Compound, Tested on, TGI (µM)
data = [
    ("c1ccc2cc(CN3CCC(C4CCN(Cc5ccc6ccccc6c5)CC4)CC3)ccc2c1", "A498 renal", 26.2),
    ("CC(=O)c1cc2c(c(O)c1C)C(=O)C(=O)c1c(O)cccc1-2", "A498 renal", 2.38),
    ("CN1CCN(CCn2c3c4ccccc4ccc3c3oc(=O)c4ccccc4c32)CC1", "A498 renal", 38.3),
    ("CC1CN1C1=CC(=O)c2c(c(CO)cn2C)C1=O (stereo unspecified)", "A498 renal", 1.76),
    ("COc1ccc2c(c1)c(=O)c1c(NCCN(C)C)ccc3c(=O)n(CCN(C)C)c(=O)n2c31", "A498 renal", 1.35),
    ("COc1ccc(S(=O)(=O)Nc2cc(/C=C\\c3cc(OC)c(OC)c(OC)c3)cc(OC)c2OC)cc1", "A498 renal", 0.0924),
    ("CCN(CC)CCOc1ccc(/C=C2\\CC3C4CC=C5C[C@@H](N6CCCC6)CC[C@]5(C)C4CC[C@]3(C)[C@H]2OC(C)=O)cc1OC (stereo partly specified)", "A498 renal", 3.46),
    ("O=C(/C(=C\\c1ccccc1)CN1CCOCC1)c1ccc(Br)cc1", "A498 renal", 12.3),
]

Moving on to the next compound.
Exercise: Query (compound): `C1CN1c1nc(N2CC2)nc(N2CC2)n1` ; field requested: TGI
Solution: 25.2

* * *

Could you please report measured TGI for the items listed next?
- Test system: MDA-MB-231 breast
- Experiment summary: NCI tumour cell line growth inhibition, 48 h
One number for each entry, in µM.

# Molecule, Tested on, Units label, TGI
measured = [
    ("c1ccc([P+](CCN2Cc3ccccc3C2)(c2ccccc2)c2ccccc2)cc1", "MDA-MB-231 breast", "µM", 16.2),
    ("CC(=O)NC1C(OCc2ccccc2)OC(CO)C(O)C1OCC(=O)N1CCCC1C(=O)N[C@@H](CCC(=O)NCCNCCNc1c2ccccc2nc2cccc([N+](=O)[O-])c12)C(N)=O (stereo partly drawn)", "MDA-MB-231 breast", "µM", 9.03),
    ("NC(=O)c1cccc(N2Cc3ccccc3OC3=C2C(=O)c2c(O)ccc(O)c2C3=O)c1", "MDA-MB-231 breast", "µM", 1.04),
]

Exercise: Fill blank: measured TGI of the molecule `O=C1C=CC(=O)c2ccc(=O)ccc21` is ____.
Solution: 45.5

* * *

- Test system: MCF7 breast
- Experiment summary: NCI tumour cell line growth inhibition, 48 h
Measured parameter: TGI

# Molecule, TGI
records = [
    ("Cc1cc(C)c(C#N)c(SC(=S)NC(=O)c2ccc(Cl)cc2)n1", "> 100 µM"),
    ("CC(=O)NC1C(OCc2ccccc2)OC(CO)C(O)C1OCC(=O)N1CCCC1C(=O)N[C@@H](CCC(=O)NCCNCCNc1c2ccccc2nc2cccc([N+](=O)[O-])c12)C(N)=O (stereo not given in full)", "19.9 µM"),
    ("CC1=NN(c2nc(N)nc(/C(C#N)=C\\C3COc4ccccc4C3=O)n2)C(C)(C)C1 (stereo not given)", "> 100 µM"),
    ("O=C(Nc1cccc(-c2cccc(F)c2)c1)C1CCN(Cc2cccc3cccnc23)CC1", "4.16 µM"),
]

Here is the next item to consider.
Exercise: Reported TGI, molecule `c1ccc2c(c1)SC1=Nc3sc4ccccc4[n+]3CN12` : ____
Solution: 42.9 µM

* * *

So I've got a bunch of compounds here, and I need their TGI values.
- Tested on: EKVX NSCLC
- Experiment summary: NCI tumour cell line growth inhibition, 48 h

Each of the following entries comes with a recorded value; kindly state TGI for each.
1. O=C(/C=C1\C[C@H]2C=Nc3ccccc3C(=O)N2C1)NCCCNC(=O)/C=C1\C[C@H]2C=Nc3ccccc3C(=O)N2C1
2. COc1cc(O)c2c(=O)c(OC)c(-c3ccc(OC)c(OC)c3)oc2c1.[Co]
3. CCOC(=O)c1cc2c(c3ccsc13)C1(C)CCC3c4ccc(OC)cc4CCC3C1C2 (stereo unspecified)
4. C[C@@H](O)[C@H]1C(=O)N2C(C(=O)O)=C(SCCN=CN)C[C@H]12

Solution:
1: 38 µM; 2: > 100 µM; 3: > 100 µM; 4: 8.61 µM

* * *

- Test system: TK-10 renal
- Experiment summary: NCI tumour cell line growth inhibition, 48 h
Measured parameter: TGI

These solved cases illustrate the format of a correct answer.
# Compound, Measured parameter, Reported result
measured = [
    ("CNC(=O)C(C)C1C(=O)/C(=C(O)/C=C\\C(C)=C\\C(C)C2OC3(C)OC(C=CC34CO4)C2C)C(=O)N1C1CCC(O)C(C)O1 (stereo unspecified)", "TGI", "> 100 µM"),
    ("Nc1nc2c(ncn2CC2CCC(CO)C2)c(=O)[nH]1 (stereo unspecified)", "TGI", "> 100 µM"),
    ("COc1ccc(CCn2nccc2C)cc1", "TGI", "> 100 µM"),
    ("CC(=O)c1cc2c(c(O)c1C)C(=O)C(=O)c1c(O)cccc1-2", "TGI", "1.01 µM"),
    ("NC1CSc2ccccc2NC1=O (stereo unspecified)", "TGI", "> 100 µM"),
]

Turning to the following compound.
Exercise: Request the reported TGI associated with COc1ccc(OC)c(N2C(=O)/C(=C\c3ccccc3)SC2c2cc(OC)c(OC)c(OC)c2)c1 (stereo unspecified)
Solution: > 100 µM

* * *

- System: A498 renal
- Experiment summary: NCI tumour cell line growth inhibition, 48 h; in the data active = GI50 below about 0.43 µM; inactive = the rest
Use one of these outcomes when replying: YES for active, NO for inactive

Take a look at these entries with their results.
# Compound, Group
records = [
    ("Cc1nc2cc(-n3c(-c4ccc(F)cc4)nc4ccccc4c3=O)ccc2n1Cc1ccccc1", "NO"),
    ("Cn1cc(C2=C(c3cn(CCSC(=N)N)c4ccccc34)C(=O)NC2=O)c2ccccc21", "NO"),
    ("Clc1ccc(/C=C2\\CCCC3C2=Nc2ccccc2NC3c2ccc(Cl)cc2)cc1 (configuration not stated)", "NO"),
    ("CO[C@H](C(=O)[C@@H](O)[C@@H](C)O)[C@@H]1Cc2cc3cc(O[C@H]4C[C@@H](O[C@H]5C[C@@H](O)[C@H](O)C(C)O5)[C@H](O)C(C)(O)O4)cc(O)c3c(O)c2C(=O)[C@H]1O[C@H]1C[C@@H](O[C@H]2C[C@@H](O[C@H]3C[C@@H](OC)[C@H](O)C(C)O3)[C@@H](O)C(C)O2)[C@H](O)C(C)O1 (some centres not stated)", "YES"),
    ("COc1ccc(/C=N/C2=C(C#N)C(c3ccccc3)c3c(ccc4ccccc34)O2)cc1 (configuration not stated)", "NO"),
]

Exercise: Dear all, I need the recorded test outcome for `CC(C)[C@]12O[C@H]1[C@@H]1O[C@]13[C@]1(O[C@H]1C[C@H]1C4=C(CC[C@@]13C)C(=O)OC4)[C@@H]2OC(=O)CN(C)C` , thank you.
Solution: YES

Exercise: What about Cc1ccc(-c2cc(C(=O)N3N=C(c4ccc(N)cc4)CC3c3ccc(Cl)cc3)c3ccccc3n2)cc1 (configuration not stated) ?
Solution: NO

* * *

- Tested on: IGROV1 ovarian
- Experiment summary: NCI tumour cell line growth inhibition, 48 h
Kindly supply the reported TGI values for the records listed here.

# annotated cases, reported TGI shown
# Compound, TGI
records = [
    ("Cc1cc(C)c2c(=O)n(CN3CCC(C#N)(c4ccccc4)CC3)sc2n1", "> 100 µM"),
    ("COc1ccc(/C(=N\\N=C(N)N)C(c2ccc(OC)cc2)C2OC(=O)c3ccccc32)cc1 (stereo unspecified)", "> 100 µM"),
    ("O=C1CC(c2ccccc2Cl)Oc2ccccc21 (stereo unspecified)", "> 100 µM"),
    ("CC(C)[Si]1(C(C)C)OCC2OC(N3C(=O)NC(=O)C[C@@H]3C(O)c3ccccc3)CC2O[Si](C(C)C)(C(C)C)O1 (stereo partly specified)", "17.6 µM"),
    ("Cn1c(=O)c2c(nc3sc4nc5ccccc5nc4n32)n(C)c1=O", "> 100 µM"),
    ("CNc1nc(SC)nc2c1c(N)nn2C", "> 100 µM"),
    ("Cc1ccc2c(c1)C(=O)c1[nH]c3ccc(F)cc3c1CO2", "> 100 µM"),
    ("O=C(O)c1ccccc1CC1Cc2ccccc2C1", "> 100 µM"),
    ("Cc1c2cnccc2c(C)c2c1c1cc(CO)ccc1n2C", "1.22 µM"),
    ("O=C(CCN1CCCC1)CC(c1ccccc1)c1c(O)c2ccccc2oc1=O (stereo unspecified)", "> 100 µM"),
]

Now let's try a different one.
Exercise: // returns reported TGI for input `Cc1ccc(O)c(N=Nc2ccc(S(=O)(=O)O)cc2)n1`
Solution: > 100 µM
